# TEST_TARGET: isolated recombinant JAK1 kinase domain (Homo sapiens (Human))
# Sequence (P23458 875-1153): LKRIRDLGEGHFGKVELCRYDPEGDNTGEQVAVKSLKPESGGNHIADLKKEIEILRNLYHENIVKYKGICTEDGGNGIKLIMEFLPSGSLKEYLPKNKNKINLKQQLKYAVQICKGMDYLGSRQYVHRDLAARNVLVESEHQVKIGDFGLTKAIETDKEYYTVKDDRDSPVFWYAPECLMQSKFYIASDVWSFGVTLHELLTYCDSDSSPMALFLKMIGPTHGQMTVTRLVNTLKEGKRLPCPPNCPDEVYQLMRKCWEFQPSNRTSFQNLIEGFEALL
# TEST_DETAILS: JAK1 enzyme assay (Caliper LabChip, Ki)
# Format: biochemical
# RECORDED_CONDITIONS: isolated recombinant JAK1 kinase domain, 1.5 nM enzyme, ATP 25 μM
REPORTED_PROPERTY: Ki

Check isolated recombinant JAK1 kinase domain (Homo sapiens (Human)) data and give Ki for CN1CCN(C(=O)Cn2cc(Nc3nc4c(N5C6CC5CN(C(=O)CCC(F)(F)F)C6)cccn4n3)cn2)CC1 [Example 48] . > 560 nM

Check isolated recombinant JAK1 kinase domain (Homo sapiens (Human)) data and give Ki for CN1CCN(C(=O)Cn2cc(Nc3nc4c(N5CC6CCC(C5)C6=CC#N)cccn4n3)cn2)CC1 [Example 118] . 0.5 nM

Check isolated recombinant JAK1 kinase domain (Homo sapiens (Human)) data and give Ki for CSc1ccccc1C(=O)N1C2CCC1CN(c1cccn3nc(Nc4cnn(CC(=O)N5CCN(C)CC5)c4)nc13)C2 [Example 115] . 1 nM

Check isolated recombinant JAK1 kinase domain (Homo sapiens (Human)) data and give Ki for CN1CCN(C(=O)Cn2cc(Nc3nc4c(N5CC6CCC(C5)N6C(=O)CC5CSCCS5)cccn4n3)cn2)CC1 (stereo not drawn) [Example 9] . 0.6 nM

Check isolated recombinant JAK1 kinase domain (Homo sapiens (Human)) data and give Ki for CN1CCN(C(=O)Cn2cc(Nc3nc4c(N5CC6CCC(C5)N6C(=O)Cc5ccncc5)cccn4n3)cn2)CC1 [Example 42] . 1.6 nM

Check isolated recombinant JAK1 kinase domain (Homo sapiens (Human)) data and give Ki for CN(C)C(=O)CN1CCN(CC2CCN(C(=O)Cn3cc(Nc4nc5c(N6CC7CCC(C6)N7C(=O)N6CC(C(F)(F)F)C6)cccn5n4)cn3)CC2)CC1 [Example 81] . 1 nM

Check isolated recombinant JAK1 kinase domain (Homo sapiens (Human)) data and give Ki for CN1CCN(C(=O)Cn2cc(Nc3nc4c(N5CC6CCC(C5)N6S(=O)(=O)Cc5ccccc5Cl)cccn4n3)cn2)CC1 [Example 161] . 0.6 nM

Check isolated recombinant JAK1 kinase domain (Homo sapiens (Human)) data and give Ki for CN1CCN(C(=O)Cn2cc(Nc3nc4c(N5CC6CCCC(C5)N6C(=O)[C@H]5C[C@H](C(F)(F)F)C5)cccn4n3)cn2)CC1 [Example 40] . 0.6 nM

Check isolated recombinant JAK1 kinase domain (Homo sapiens (Human)) data and give Ki for CN1CCN(C(=O)Cn2cc(Nc3nc4c(N5CC6CCC(C5)N6C(=O)c5ccsc5)cccn4n3)cn2)CC1 [Example 157] . 0.4 nM
